Target: Lymphokine-activated killer T-cell-originated protein kinase (Homo sapiens)
Sequence (Q96KB5 whole entry): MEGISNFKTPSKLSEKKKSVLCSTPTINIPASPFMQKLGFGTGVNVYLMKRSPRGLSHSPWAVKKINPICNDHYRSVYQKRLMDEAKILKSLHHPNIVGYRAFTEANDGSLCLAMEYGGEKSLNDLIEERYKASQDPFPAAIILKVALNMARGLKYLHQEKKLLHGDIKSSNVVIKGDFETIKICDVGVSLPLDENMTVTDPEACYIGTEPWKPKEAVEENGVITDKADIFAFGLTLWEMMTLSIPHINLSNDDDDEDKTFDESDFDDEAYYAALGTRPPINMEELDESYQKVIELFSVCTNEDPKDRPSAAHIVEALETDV
Assay: Kinase Assay
Settings: pH 7.4; 25 °C
Measurement Name: IC50 (nM)

{"columns": ["Compound", "Measurement Name", "Readout Number"],
 "data": [
  ["CC(NC1CCCC1)c1ccc(-c2c(O)ccc3[nH]c(=O)c4sccc4c23)cc1 (centres undefined)", "IC50", 2.8],
  ["COc1cc(C)c2[nH]c(=O)c3sccc3c2c1-c1ccc(CCN)c(Cl)c1", "IC50", 33],
  ["CCC(c1ccc(-c2c(O)ccc3[nH]c(=O)c4sccc4c23)cc1)N(C)C (centres undefined)", "IC50", 1.9],
  ["CC[C@@H](N)c1ccc(-c2c(O)cc(Br)c3[nH]c(=O)c4sccc4c23)cc1", "IC50", 47]
]}

The measurements presented in this section are drawn from BindingDB's records for patent US8962648.
